molecular target: Beta-3 adrenergic receptor (Homo sapiens) (UniProt P13945); conditions: Compound concentration 10 µM; call rule not given here
Sequence (P13945 whole entry, looked up): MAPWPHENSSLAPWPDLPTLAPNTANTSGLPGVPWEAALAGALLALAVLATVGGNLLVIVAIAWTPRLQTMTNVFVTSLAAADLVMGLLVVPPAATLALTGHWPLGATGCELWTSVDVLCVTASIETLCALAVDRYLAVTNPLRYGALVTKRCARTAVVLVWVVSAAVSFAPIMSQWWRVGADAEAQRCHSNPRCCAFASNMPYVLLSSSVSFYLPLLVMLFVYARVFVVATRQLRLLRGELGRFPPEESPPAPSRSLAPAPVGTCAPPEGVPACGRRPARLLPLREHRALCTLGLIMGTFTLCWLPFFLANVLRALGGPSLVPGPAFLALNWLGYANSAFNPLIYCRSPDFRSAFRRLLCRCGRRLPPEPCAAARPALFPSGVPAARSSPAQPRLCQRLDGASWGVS
Respond using exactly one of the listed classes: t = active, f = inactive

Please review the following examples before continuing.
[[record]]
compound = "Cc1c(C(=O)NC2CCCCC2)sc2nc3ccc(N)cc3n12"
group = "f"

[[record]]
compound = "Nc1nc2c(c(N3CCNCC3)n1)CCC1=C2[C@@H]2CCCC[C@@H]2O1"
group = "f"


[ask] Just curious, what result did "Cc1c(F)cccc1NC(=O)Nc1ccc(Cl)c(S(=O)(=O)[C@H]2CCCNC2)c1O" get here?
[reply] f

[ask] Just curious, what result did "C[C@H](CO)Nc1nc(SCc2cccc(Cl)c2F)nc2[nH]c(=O)sc12" get here?
[reply] f

[ask] Just curious, what result did "Cc1cc(NC(=O)Nc2ccc(N(C)C)cc2)c2cc(F)cc(F)c2n1" get here?
[reply] f

[ask] Just curious, what result did CC(C)NCC(O)c1ccc(N)c(C#N)c1 (stereo not given) get here?
[reply] t

[ask] Just curious, what result did "CNc1nc(NCc2ccc(NS(C)(=O)=O)cc2Cl)cc(-c2ccccn2)n1" get here?
[reply] f

[ask] Just curious, what result did "CCCCN(CCCC)C(=O)CN1C[C@@H](c2ccc3c(c2)OCO3)[C@H](C(=O)O)[C@H]1c1ccc(OC)cc1" get here?
[reply] f

[ask] Just curious, what result did "C[C@H](Cc1cc2c(c(C(N)=O)c1)N(CCCO)CC2)NCCOc1ccccc1OCC(F)(F)F" get here?
[reply] f

[ask] Just curious, what result did "O=C(O)CC/C=C\C[C@@H]1CO[C@H](c2ccccc2Cl)O[C@@H]1c1ccccc1O" get here?
[reply] f

[ask] Just curious, what result did "COc1ccccc1CN[C@H]1C2CCN(CC2)[C@H]1C(c1ccccc1)c1ccccc1" get here?
[reply] f

* * *

target: 5-hydroxytryptamine receptor 1A (Homo sapiens); conditions: Compound concentration 10 µM; call rule not given here
Respond using exactly one of the listed classes: active, inactive

Please review the following examples before continuing.
[[record]]
molecule = "Cc1ccccc1C(=O)Nc1ccc(C(=O)N2CCCC(O)c3cc(Cl)ccc32)c(C)c1 (centres undefined)"
group = "inactive"

[[record]]
molecule = "CCc1nn(CCCN2CCN(c3cccc(Cl)c3)CC2)c(=O)n1CCOc1ccccc1"
group = "inactive"


[ask] Just curious, what result did "CO[C@@H]1COCC[C@@H]1N[C@@H]1CC[C@@](C(=O)N2CCc3ncc(C(F)(F)F)cc3C2)(C(C)C)C1" get here?
[reply] inactive

[ask] Just curious, what result did "CCCNS(=O)(=O)Nc1ncnc(OCCOc2ncc(Br)cn2)c1-c1ccc(Br)cc1" get here?
[reply] inactive

[ask] Just curious, what result did "CNc1nc(NCc2ccc(NS(C)(=O)=O)cc2Cl)cc(-c2ccccn2)n1" get here?
[reply] inactive

[ask] Just curious, what result did "CCc1cc2c(cc1CC)CC(NC[C@H](O)c1ccc(O)c3[nH]c(=O)ccc13)C2" get here?
[reply] inactive

[ask] Just curious, what result did "COc1ccnc(N2CCC3(CCCN(Cc4c[nH]c5ccccc45)C3=O)CC2)n1" get here?
[reply] active

[ask] Just curious, what result did "COc1ccc(NS(=O)(=O)c2sc3ccc(Cl)cc3c2C)cc1N1CCNCC1" get here?
[reply] active

[ask] Just curious, what result did "O=C(O)Cn1c(C(=O)Nc2nc(-c3ccccc3Cl)cs2)cc2ccccc21" get here?
[reply] inactive
